target: Glucose-6-phosphate 1-dehydrogenase (Homo sapiens, UniProt P11413); assay: human G6PD enzyme inhibitors, dose response, selectivity assay for P. falciparum G6PD inhibitor project, biochemical, fluorescence (AID 504792); assay type: functional
Sequence (P11413 whole entry): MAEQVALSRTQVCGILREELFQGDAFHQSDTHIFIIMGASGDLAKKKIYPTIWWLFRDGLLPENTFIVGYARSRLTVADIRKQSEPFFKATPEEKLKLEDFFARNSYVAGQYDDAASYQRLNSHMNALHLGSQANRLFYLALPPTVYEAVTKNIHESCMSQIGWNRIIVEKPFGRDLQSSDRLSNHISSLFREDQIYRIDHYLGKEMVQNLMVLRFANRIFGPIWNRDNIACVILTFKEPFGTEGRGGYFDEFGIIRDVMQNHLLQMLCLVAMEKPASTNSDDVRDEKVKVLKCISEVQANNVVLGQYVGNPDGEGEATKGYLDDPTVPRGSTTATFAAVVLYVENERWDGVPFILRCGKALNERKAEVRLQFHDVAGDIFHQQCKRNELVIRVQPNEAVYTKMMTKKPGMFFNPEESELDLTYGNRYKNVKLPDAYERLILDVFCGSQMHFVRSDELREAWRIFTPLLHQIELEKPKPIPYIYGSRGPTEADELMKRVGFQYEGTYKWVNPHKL
The source made the active and inactive calls.
List of IC50 values.

Sample answers from the record:
# RECORD SMILES, IC50
data = [
    ("O=c1ccsn1Cc1ccccc1", "75.6 µM (inactive)"),
    ("COc1ccccc1N1C(=O)C=C(Sc2nc(C)cc(C)n2)C1=O", "> 80 µM (inactive)"),
    ("Cn1c(=O)[nH]c(=O)c2c1nc([N+](=O)[O-])n2Cc1ccccc1", "47.9 µM (inactive)"),
    ("O=C(O)c1cccc(N2C(=O)C=CC2=O)c1", "> 80 µM (inactive)"),
    ("CC(C)Sc1nnc(NC(=O)c2ccc3c(c2)OCO3)s1", "38.9 µM (inactive)"),
    ("O=S(=O)(Nc1ccccc1F)c1cccc(NC(=S)NCCN2CCOCC2)c1", "> 80 µM (inactive)"),
]

input: Which IC50 is listed for CCC(C)(C)c1nnc(NC(=O)C2CCN(C(=O)c3ccco3)CC2)s1 ?
output: > 80 µM (inactive)

input: Name the recorded IC50 for OCCNc1nc(O)nc(O)c1/N=C/c1ccccc1 .
output: 14.2 µM (active)

input: Would you mind telling me what IC50 value was observed for O=C(NC1=CC(=O)c2ccccc2C1=O)c1ccccc1 ?
output: 35.7 µM (inactive)

###

biological target: UniProtKB P33261; assay: Cytochrome panel assay with activity outcomes. Panel member name: p450-cyp2c19 Compounds with AC50 equal or less than 10 uM are considered active; type: functional; conditions: read-out: AC50
OBSERVED PROPERTY: AC50

# COMPOUND, OBSERVED RESULT
data = [
    ("CCCCn1cnc2c(c(CC#N)nn2-c2ccccc2)c1=N", "6.31 µM (inconclusive)"),
]

input: Query the reported AC50 for UniProtKB P33261; item: CCOc1ccc(N(C(=O)/C=C/C(=O)Nc2cc(C)on2)C(C(=O)NC2CCCC2)c2ccccc2C)cc1 (stereo not drawn)
output: 31.6 µM (inconclusive)

input: Query the reported AC50 for UniProtKB P33261; item: COc1ccc(C(=O)Nc2ccc(S(=O)(=O)N3CCOCC3)cc2)cc1OC
output: 8.91 µM (inconclusive)

input: Under UniProtKB P33261: AC50 value of O=C1C=C(Nc2nc(C(=O)O)cc(=O)[nH]2)c2ccccc2C1=O ?
output: 3.16 µM (inconclusive)

input: Fill in the recorded AC50 for this compound, with UniProtKB P33261 as test system: Cc1cc(Nc2ccc(Cl)cc2)nc(N)n1
output: 8.91 µM (inconclusive)

###

target: Endoplasmic reticulum aminopeptidase 1 (Homo sapiens); test: ERAP1 aminopeptidase inhibitors, dose response, biochemical, cherry-pick, set 2, plate reader (AID 743314)
Sequence (Q9NZ08 whole entry): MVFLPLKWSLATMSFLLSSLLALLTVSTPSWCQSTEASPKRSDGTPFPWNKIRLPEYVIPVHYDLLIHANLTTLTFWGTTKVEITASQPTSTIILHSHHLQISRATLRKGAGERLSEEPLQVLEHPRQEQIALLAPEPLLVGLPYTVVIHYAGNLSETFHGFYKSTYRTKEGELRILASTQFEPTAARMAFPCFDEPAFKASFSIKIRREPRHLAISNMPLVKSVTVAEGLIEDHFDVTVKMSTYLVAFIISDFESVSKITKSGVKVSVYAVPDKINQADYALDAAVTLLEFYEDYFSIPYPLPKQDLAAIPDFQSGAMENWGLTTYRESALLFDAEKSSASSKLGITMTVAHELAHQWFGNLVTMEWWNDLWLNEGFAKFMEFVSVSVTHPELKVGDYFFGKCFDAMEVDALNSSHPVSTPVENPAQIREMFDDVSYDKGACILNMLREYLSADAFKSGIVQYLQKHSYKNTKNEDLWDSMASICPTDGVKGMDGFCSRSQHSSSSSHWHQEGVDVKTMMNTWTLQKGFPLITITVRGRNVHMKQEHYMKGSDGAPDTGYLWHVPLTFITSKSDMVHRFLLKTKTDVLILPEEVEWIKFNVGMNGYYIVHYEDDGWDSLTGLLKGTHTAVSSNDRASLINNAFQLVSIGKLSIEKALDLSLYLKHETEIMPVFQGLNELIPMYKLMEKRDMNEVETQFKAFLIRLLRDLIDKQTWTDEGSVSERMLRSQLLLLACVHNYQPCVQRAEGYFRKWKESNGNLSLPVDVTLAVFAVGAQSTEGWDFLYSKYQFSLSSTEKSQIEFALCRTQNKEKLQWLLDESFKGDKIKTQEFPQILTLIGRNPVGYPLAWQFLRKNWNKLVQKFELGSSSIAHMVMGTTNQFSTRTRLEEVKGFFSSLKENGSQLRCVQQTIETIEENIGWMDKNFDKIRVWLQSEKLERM
Calls of active or inactive are those of the source.
Measured AC50 by item

Reference set, count: 3
# RECORD SMILES, TARGET OF ASSAY, OBSERVED RESULT
records = [
    ("O=C(NCc1ccccc1)[C@@H]1[C@@H](CO)[C@@H]2Cn3c(ccc(/C=C/c4ccccc4)c3=O)[C@H]1N2CC1CC1", "Endoplasmic reticulum aminopeptidase 1 (Homo sapiens)", "11.1 µM (active)"),
    ("CN1[C@H](C(=O)NC2CCC2)[C@@H](CO)[C@@H]2Cn3c(ccc(/C=C/c4ccccc4)c3=O)[C@@H]21", "Endoplasmic reticulum aminopeptidase 1 (Homo sapiens)", "18 µM (active)"),
    ("O=C([C@@H]1[C@@H](CO)[C@@H]2Cn3c(ccc(/C=C/c4ccccc4)c3=O)[C@@H]2N1CC1CC1)N1CCOCC1", "Endoplasmic reticulum aminopeptidase 1 (Homo sapiens)", "13.7 µM (active)"),
]

Here is the next item to consider.
input: Item under review: CCN1[C@@H]2c3ccc(/C=C/c4ccccc4)c(=O)n3C[C@H]1[C@H](CO)[C@H]2C(=O)N1CCOCC1 . Reported AC50?
output: 6.11 µM (active)

###

molecular target: Peroxisome proliferator-activated receptor gamma/Nuclear receptor corepressor 2 (Homo sapiens, UniProt P37231+Q9Y618); test: Counterscreen for NR2E3 inverse agonists: TR-FRET-based biochemical high throughput dose response assay to identify inverse agonists of the interaction between peroxisome proliferator-activated receptor gamma (PPARg) and nuclear receptor co-repressor 2 (NCOR2).; assay type: functional
Sequence (P37231 whole entry): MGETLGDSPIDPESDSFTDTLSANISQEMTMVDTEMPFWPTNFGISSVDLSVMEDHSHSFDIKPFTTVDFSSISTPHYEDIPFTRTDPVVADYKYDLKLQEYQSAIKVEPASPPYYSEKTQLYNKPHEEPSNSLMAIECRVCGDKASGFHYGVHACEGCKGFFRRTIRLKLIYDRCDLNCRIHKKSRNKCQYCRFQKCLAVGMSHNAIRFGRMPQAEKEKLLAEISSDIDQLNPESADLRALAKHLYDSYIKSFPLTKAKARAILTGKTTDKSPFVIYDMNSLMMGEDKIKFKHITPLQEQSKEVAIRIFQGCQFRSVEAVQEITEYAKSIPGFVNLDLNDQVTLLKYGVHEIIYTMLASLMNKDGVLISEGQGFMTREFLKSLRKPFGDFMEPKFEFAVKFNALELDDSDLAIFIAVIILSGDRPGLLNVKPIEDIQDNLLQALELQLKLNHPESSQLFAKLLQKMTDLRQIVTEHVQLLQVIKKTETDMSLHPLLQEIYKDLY
Sequence (Q9Y618 whole entry): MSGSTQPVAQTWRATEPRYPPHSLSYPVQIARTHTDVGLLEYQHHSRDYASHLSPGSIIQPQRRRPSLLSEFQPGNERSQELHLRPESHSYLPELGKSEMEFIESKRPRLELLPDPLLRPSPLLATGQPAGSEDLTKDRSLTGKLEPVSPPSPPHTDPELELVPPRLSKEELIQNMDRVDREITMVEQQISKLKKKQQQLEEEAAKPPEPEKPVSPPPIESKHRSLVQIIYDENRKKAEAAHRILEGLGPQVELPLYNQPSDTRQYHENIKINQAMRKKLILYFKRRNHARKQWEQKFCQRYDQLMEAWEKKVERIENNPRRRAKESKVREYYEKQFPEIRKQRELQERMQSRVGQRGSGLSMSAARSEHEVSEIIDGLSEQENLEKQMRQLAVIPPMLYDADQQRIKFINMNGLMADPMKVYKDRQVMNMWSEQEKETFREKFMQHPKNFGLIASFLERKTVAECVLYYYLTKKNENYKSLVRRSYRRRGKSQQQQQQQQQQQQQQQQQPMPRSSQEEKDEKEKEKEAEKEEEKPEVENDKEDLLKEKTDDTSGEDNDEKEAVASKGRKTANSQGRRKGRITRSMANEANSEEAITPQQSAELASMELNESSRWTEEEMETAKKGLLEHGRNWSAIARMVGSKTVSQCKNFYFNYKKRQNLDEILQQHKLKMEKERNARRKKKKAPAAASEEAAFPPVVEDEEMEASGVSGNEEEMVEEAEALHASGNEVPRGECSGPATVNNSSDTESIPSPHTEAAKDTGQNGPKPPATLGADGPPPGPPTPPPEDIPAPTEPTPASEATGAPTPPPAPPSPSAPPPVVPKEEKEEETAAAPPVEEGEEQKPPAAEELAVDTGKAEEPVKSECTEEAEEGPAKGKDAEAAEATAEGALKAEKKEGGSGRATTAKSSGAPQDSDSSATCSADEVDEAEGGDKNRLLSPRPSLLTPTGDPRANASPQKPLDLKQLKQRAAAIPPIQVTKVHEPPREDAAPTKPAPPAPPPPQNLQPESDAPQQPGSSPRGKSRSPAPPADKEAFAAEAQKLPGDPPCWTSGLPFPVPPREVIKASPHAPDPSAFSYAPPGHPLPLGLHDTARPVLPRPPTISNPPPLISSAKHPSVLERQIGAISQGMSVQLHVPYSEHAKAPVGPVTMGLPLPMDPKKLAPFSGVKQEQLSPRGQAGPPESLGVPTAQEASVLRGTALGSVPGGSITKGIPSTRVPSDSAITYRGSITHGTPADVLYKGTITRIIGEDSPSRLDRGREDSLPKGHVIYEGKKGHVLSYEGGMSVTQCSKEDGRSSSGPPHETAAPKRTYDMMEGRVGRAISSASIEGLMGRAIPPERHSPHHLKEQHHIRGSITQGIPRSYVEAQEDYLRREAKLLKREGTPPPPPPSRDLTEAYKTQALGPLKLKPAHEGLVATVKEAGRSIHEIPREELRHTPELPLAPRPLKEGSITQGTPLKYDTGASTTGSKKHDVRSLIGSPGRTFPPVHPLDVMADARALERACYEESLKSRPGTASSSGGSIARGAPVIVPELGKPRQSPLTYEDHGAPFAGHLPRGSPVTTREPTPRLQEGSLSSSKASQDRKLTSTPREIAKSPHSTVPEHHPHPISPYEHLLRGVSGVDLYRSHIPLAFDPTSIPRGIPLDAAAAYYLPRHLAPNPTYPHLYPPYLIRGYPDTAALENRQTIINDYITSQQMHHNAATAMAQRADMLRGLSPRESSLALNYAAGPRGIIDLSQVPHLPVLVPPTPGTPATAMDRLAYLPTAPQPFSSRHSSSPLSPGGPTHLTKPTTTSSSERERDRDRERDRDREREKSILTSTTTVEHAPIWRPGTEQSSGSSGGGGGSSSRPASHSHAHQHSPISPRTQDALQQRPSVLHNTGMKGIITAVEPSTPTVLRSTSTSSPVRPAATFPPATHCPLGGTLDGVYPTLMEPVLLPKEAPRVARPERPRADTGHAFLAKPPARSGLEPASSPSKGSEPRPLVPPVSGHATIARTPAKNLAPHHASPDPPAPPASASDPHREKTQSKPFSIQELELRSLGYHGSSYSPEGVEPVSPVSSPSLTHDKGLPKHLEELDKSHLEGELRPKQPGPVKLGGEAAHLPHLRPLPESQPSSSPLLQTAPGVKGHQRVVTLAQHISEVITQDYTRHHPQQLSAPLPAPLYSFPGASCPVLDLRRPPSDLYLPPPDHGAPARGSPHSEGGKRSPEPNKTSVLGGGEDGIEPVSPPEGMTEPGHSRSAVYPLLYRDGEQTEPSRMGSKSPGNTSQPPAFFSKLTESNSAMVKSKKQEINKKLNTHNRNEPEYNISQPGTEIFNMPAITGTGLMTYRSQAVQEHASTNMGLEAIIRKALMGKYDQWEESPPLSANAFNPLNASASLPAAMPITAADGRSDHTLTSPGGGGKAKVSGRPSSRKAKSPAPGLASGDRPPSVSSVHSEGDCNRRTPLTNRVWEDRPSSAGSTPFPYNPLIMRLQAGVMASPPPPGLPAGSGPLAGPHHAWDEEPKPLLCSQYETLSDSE
Active and inactive are the calls of the source.
Quick reference: IC50 of the listed items.

# RECORD SMILES, IC50
rows = [
    ("O=C(Nc1ccnc(-c2cccnc2)n1)c1ccc(Cl)cc1", "5.27 µM (active)"),
]

input: State the recorded IC50 for this entry: O=C(Nc1nc(-c2nc3ccccc3s2)cs1)c1ccco1
output: 3.92 µM (active)

input: Can you look up the measured IC50 of CSc1cccc(NC(=O)c2cc(S(=O)(=O)N3CCCCC3)c[nH]2)c1 for me?
output: 4.12 µM (active)

input: What value of IC50 has been recorded for this entry: CCOc1cnn(Cc2ccccc2)c(=O)c1SCc1ccccc1
output: > 39.8 µM (not active)

input: If you can, please state the reported IC50 value of COc1ccc(-c2cn3c(C)c(C(=O)Nc4cc(NC(C)=O)ccc4OC)sc3n2)cc1 .
output: 18 µM (not active)

###

molecular target: UniProtKB P33261; experiment: Cytochrome panel assay with activity outcomes. Panel member name: p450-cyp2c19 Compounds with AC50 equal or less than 10 uM are considered active; format: functional; conditions: read-out: AC50
OBSERVED PROPERTY: AC50

The examples below pair each entry with its known result.
# MOLECULE, OBSERVED RESULT
data = [
    ("CC(/C=N\\NC(=O)Cn1c(C)nc2ccccc21)=C\\c1ccccc1", "0.562 µM (inconclusive)"),
    ("O=C1C2C3C=CC(C3)C2C(=O)N1/N=C/c1cn(Cc2ccccc2)c2ccccc12 (stereo unspecified)", "8.91 µM (inconclusive)"),
]

input: Entry CCOC(=O)Cn1nnc2c(sc3nc4c(c(-c5ccc(Cl)cc5)c32)CCC4)c1=O has what AC50?
output: 7.08 µM (inconclusive)

input: Look up AC50 for this molecule: O=c1oc(Cl)c(Cl)c2ccccc12
output: 25.1 µM (inconclusive)

input: State the recorded AC50 for this entry: Cc1ccc(NC(=O)c2sc3ccccc3c2Cl)nc1
output: 7.94 µM (inconclusive)

input: // returns reported AC50 for input O=C(NCCc1ccccc1)C(=O)NN=C1CCCC1
output: 0.355 µM (inconclusive)

###

Target: CAAX prenyl protease 2 (Homo sapiens, UniProt Q9Y256)
Sequence (Q9Y256 whole entry): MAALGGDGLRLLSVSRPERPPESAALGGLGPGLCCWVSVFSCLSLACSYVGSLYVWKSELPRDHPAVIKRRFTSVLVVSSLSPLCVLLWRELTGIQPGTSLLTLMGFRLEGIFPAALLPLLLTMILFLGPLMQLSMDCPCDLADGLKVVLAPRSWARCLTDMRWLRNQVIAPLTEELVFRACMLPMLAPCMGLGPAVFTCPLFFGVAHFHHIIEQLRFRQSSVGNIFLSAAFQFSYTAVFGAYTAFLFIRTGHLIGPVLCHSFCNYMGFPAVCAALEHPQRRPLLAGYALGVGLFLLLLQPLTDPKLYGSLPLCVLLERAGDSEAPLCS
Test: human Rce1 protease inhibitors, dose response, biochemical, yeast membranes, quenched-peptide fluorescence, cherry-pick (AID 588849)
The source made the active and inactive calls.
// allowed return values: active, inactive

Example cases with answers are listed next.
# COMPOUND, CLASS LABEL
records = [
    ("CSc1nnc(-c2sc(-c3ccccc3)nc2C)n1C", "inactive"),
    ("COc1ccc(C)c2sc(NC(=O)C3=COCCO3)nc12", "active"),
    ("Cc1nn(-c2ccccc2)c2nc(N)c(C(N)=O)cc12", "active"),
]

input: Tell me the recorded outcome of this test for COc1ccc(C2=NN(C(=O)CCC(=O)O)C(c3cccs3)C2)cc1 (centres undefined) .
output: active

###

Measured EC50 accompanies every entry in the list below.
molecular target: Luciferin 4-monooxygenase (Photinus pyralis, UniProt P08659); assay: firefly luciferase enzyme inhibitors, dose response, biochemical, luminescence (AID 1891)
Sequence (P08659 whole entry): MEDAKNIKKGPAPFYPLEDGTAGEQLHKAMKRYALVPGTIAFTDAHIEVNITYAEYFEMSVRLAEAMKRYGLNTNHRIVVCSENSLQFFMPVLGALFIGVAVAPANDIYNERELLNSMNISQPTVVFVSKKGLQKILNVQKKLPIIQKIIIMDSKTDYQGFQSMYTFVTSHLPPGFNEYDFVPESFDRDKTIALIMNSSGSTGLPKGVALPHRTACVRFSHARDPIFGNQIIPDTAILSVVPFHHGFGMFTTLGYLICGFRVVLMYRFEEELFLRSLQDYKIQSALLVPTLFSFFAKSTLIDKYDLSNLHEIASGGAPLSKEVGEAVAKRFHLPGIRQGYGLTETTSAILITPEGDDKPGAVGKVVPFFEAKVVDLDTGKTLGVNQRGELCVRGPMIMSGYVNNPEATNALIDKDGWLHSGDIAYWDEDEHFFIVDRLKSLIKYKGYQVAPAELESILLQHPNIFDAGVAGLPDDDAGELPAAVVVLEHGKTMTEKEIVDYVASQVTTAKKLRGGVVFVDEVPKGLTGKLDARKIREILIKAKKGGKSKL
Activity calls are given as the source filed them.

// solved cases for EC50 follow
# MOLECULE, EC50
measured = [
    ("C/N=c1\\scc(-c2cccs2)n1/N=C/c1ccc(O)c(O)c1O", "0.636 µM (active)"),
    ("COc1ccc(-c2[nH]ncc2/C=N/NC(=O)c2ccc(Br)cc2)c(OC)c1", "> 112 µM (not active)"),
]

input: Data request, read-out EC50, for Cc1nc2sccn2c(=O)c1S(=O)(=O)NC(C)c1ccccc1 (stereo not drawn)
output: > 112 µM (not active)

###

biological target: UniProt:P61088; type: functional
Calls of active or inactive are those of the source.
Output constraint: value belongs to active, inactive

Examples with answers:
# COMPOUND, TARGET OF ASSAY, CLASS LABEL
data = [
    ("Cc1c(CCOC(=O)C2C3CC4CC(C3)CC2C4)sc[n+]1CC(=O)c1ccc(Br)cc1 (configuration not stated)", "UniProt:P61088", "inactive"),
    ("Cc1ccc(C(C(=O)NCC2CCCO2)N(C(=O)c2snc(C(N)=O)c2N)c2ccc3c(c2)OCCO3)cc1 (configuration not stated)", "UniProt:P61088", "active"),
    ("CN(C)CCCN(C(=O)c1ccc(S(=O)(=O)N2CCCCCC2)cc1)c1nc2cc3c(cc2s1)OCCO3", "UniProt:P61088", "active"),
]

input: Answer briefly: the call reported for CC(C)OCCCNc1nc2c(-c3ccccc3)nnn2c2ccccc12 in this assay.
output: inactive

input: For this compound, state the assay outcome: Cc1cc(C)cc(N(C(=O)c2snc(C(N)=O)c2N)C(C(=O)NCC2CCCO2)c2ccc(C)o2)c1 (configuration not stated)
output: inactive

input: Hi team, can someone confirm the assay call for CCOc1ccc2nc(N(CCCN(C)C)C(=O)c3ccc(S(=O)(=O)N4CCc5ccccc5C4)cc3)sc2c1 ?
output: active

input: Could you check what this test reported for Cc1ccc(C(=O)NCCN2C3=NC[C@@H](Cc4ccccc4)N3C[C@H]2Cc2ccc(O)cc2)cc1Br ?
output: active
